target: PTPN2 (Homo sapiens)
Construct: expressed in transfected cells; host or cells: 293T (293T.109 HiBiT-PTPN2 line; parental 293T WT from ATCC)
Sequence (P17706 whole entry, species assumed): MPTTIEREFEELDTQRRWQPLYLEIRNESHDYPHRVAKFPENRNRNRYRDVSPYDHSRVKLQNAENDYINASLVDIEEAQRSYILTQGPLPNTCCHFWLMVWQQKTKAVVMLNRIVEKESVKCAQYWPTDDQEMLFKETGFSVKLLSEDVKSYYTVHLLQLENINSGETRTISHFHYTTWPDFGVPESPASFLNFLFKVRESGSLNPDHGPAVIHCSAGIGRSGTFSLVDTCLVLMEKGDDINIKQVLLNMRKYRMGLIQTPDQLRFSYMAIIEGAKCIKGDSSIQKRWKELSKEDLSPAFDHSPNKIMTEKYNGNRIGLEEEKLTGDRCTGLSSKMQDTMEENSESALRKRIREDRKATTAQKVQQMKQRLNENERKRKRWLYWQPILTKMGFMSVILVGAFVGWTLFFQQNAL
test.method.notes: HiBiT-Degradation 293T.109 PTPN2 (Nano-Glo HiBiT Lytic Assay)
Format: cell-based
condition.set: 293T.109 (HiBiT-PTPN2) cells, 24.0 hours
attribute.measured: DC50

Examples with their reported DC50 follow.
• Cn1c(=O)n(C2CCC(=O)NC2=O)c2ccc(-c3ccc(CC(=O)Nc4ccc5c(F)c(N6CC(=O)NS6(=O)=O)c(O)cc5c4)cc3)cc21 (stereo not drawn) = 10 to 50 nM
• O=C(CCOCCNC(=O)CNc1cccc2c1CN(C1CCC(=O)NC1=O)C2=O)NCCOc1ccc2cc(O)c(N3CC(=O)NS3(=O)=O)c(F)c2c1 (stereo not drawn) = 200 to 1000 nM

I am curious: what DC50 value has been reported for Cn1c(=O)n(C2CCC(=O)NC2=O)c2ccc(C3CCN(CC(=O)N4CC[C@@H](COc5ccc6cc(O)c(N7CC(=O)NS7(=O)=O)c(F)c6c5)C4)CC3(F)F)cc21 (stereo partly drawn) ? 10 to 50 nM
